Source listed as patent US20250312469A1.

Assay: in vivo
Conditions: female, SCID, mouse, HT29 tumor, po
Experimental Endpoint: half-life

{"Compound": "CCC1(O)C(=O)OCc2c1cc1n(c2=O)Cc2cc3cc4c(cc3nc2-1)OCO4 (stereo not shown)", "Experimental Endpoint": "half-life", "Test Value": "4.24 h"}

---

Target: DDX5 (Homo sapiens)
Sequence (P17844 whole entry): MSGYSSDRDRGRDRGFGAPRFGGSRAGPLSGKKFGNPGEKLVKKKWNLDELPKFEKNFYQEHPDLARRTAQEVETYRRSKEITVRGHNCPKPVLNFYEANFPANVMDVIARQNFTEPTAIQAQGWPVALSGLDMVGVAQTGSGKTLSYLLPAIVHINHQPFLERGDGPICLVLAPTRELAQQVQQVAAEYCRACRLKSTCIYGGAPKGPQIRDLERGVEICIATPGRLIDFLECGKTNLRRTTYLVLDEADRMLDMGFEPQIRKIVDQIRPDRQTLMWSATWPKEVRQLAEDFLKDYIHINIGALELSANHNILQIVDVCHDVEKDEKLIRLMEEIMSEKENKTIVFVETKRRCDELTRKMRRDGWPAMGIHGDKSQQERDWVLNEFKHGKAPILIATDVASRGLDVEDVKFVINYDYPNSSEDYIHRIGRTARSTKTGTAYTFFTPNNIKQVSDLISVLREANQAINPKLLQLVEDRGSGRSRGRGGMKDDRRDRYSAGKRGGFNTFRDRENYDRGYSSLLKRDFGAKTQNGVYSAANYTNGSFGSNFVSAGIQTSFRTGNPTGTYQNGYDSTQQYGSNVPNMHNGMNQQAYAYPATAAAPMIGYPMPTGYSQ
pKd: −log10 of the molar value.
Experimental Endpoint: pKd

{"Compound": "CC[C@@]1(O)C(=O)OCc2c1cc1n(c2=O)Cc2cc3c(CN(C)C)c(O)ccc3nc2-1 [topotecan, reference compound]", "Test Value": "≤ 5.97"}

---

Target: hERG (Homo sapiens, UniProt Q12809)
Sequence (Q12809 whole entry): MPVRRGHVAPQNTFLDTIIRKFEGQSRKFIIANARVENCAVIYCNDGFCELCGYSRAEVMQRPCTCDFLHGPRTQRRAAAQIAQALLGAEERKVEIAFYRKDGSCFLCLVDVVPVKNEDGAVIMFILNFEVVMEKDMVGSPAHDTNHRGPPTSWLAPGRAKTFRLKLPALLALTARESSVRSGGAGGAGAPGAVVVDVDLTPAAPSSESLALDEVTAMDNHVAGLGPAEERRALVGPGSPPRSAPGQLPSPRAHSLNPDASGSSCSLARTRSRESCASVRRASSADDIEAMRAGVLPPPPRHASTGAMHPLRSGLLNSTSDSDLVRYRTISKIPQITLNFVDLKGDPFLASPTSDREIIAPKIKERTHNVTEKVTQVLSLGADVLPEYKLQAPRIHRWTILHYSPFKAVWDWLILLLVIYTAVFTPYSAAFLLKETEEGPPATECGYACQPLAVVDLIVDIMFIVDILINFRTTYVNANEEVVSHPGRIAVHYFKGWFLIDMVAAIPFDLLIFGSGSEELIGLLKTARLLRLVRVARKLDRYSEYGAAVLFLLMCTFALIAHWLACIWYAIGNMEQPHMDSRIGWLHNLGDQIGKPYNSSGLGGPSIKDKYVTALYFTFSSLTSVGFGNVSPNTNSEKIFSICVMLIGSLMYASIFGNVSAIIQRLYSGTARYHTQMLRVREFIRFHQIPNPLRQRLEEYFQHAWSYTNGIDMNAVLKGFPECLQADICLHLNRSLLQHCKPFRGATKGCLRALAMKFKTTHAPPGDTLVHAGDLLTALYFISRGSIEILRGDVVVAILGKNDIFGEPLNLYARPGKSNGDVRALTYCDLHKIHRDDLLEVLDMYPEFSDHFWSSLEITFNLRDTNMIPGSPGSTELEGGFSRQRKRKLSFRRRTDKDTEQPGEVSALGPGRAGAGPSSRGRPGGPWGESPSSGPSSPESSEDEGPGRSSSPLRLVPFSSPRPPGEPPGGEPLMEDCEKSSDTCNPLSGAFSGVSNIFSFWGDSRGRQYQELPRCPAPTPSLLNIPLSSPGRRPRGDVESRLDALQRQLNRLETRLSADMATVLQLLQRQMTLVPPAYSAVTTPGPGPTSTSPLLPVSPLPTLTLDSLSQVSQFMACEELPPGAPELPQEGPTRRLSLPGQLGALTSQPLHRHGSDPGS
Experiment: in vitro
Conditions: human, pH 7.2
Experimental Endpoint: inhibition at 300 s, 0.003 µM (%)

{"Molecule": "CCC1(O)C(=O)OCc2c1cc1n(c2=O)Cc2cc3cc4c(cc3nc2-1)OCO4 (stereo not shown) [FL118]", "Value Units": "%", "Test Value": 14.8}

---

Assay: in vivo
Conditions: SCID, mouse, plasma, iv
Experimental Endpoint: Tmax

{"Compound": "CCC1(O)C(=O)OCc2c1cc1n(c2=O)Cc2cc3cc4c(cc3nc2-1)OCO4 (stereo not shown)", "Test Value": "10 min"}

---

Assay: in vivo
Conditions: SCID, mouse, plasma, iv

{"Molecule": "CCC1(O)C(=O)OCc2c1cc1n(c2=O)Cc2cc3cc4c(cc3nc2-1)OCO4 (stereo not shown)", "Value Units": "mL/min/kg", "clearance": 238}

---

Test: Rat toxicology/MTD, limited numbers, FL118-HPβCD complex powder suspension (Roswell Park)
Conditions: female, Sprague-Dawley, rat, in vivo, po, conservative MTD, female rats

{"Compound": "CCC1(O)C(=O)OCc2c1cc1n(c2=O)Cc2cc3cc4c(cc3nc2-1)OCO4 (stereo not shown)", "MTD at 50 days": "≤ 4.77 mg/kg"}

---

Target: ABCG2/BCRP (Homo sapiens, UniProt Q9UNQ0)
Sequence (Q9UNQ0 1-655): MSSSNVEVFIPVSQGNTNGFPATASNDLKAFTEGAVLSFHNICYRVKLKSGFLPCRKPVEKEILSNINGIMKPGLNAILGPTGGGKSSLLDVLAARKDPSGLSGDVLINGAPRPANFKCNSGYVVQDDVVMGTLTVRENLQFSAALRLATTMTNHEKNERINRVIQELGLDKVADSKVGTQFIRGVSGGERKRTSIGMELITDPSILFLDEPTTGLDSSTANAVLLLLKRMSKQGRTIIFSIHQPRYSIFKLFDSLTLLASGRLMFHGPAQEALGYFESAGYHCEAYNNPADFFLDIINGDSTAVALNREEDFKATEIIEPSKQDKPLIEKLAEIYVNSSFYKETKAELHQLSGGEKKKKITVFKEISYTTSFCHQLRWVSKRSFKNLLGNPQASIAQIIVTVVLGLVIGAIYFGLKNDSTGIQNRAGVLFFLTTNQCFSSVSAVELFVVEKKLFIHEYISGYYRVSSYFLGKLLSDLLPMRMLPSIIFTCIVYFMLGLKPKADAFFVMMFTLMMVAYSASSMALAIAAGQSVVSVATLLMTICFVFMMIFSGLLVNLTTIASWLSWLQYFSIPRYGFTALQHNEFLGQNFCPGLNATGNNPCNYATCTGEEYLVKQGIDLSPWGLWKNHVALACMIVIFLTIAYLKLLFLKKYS
Experiment: in vitro
Details: Caco-2, pH 7.4, Recovery (%), Caco-2, A-to-B, first FL118 entry (without Ko143)
Experimental Endpoint: recovery at 120 min, 1 µM (%)

{"Compound": "CCC1(O)C(=O)OCc2c1cc1n(c2=O)Cc2cc3cc4c(cc3nc2-1)OCO4 (stereo not shown)", "Test Value": 57}
